meta.source: paper PMC12802937

Molecular target: T1, Bre1-LR (Bre1 residues 227–700, LBD and RING domains), 6× histidine tag (budding yeast, UniProt Q07457 227-700)
T1 construct: two Bre1 polypeptides form the dimeric coiled-coils of the LBD in the crystal structure; also called WT; source: E. coli BL21 Rosetta (DE3), purified (Ni-NTA, heparin, gel filtration)
T1 sequence (looked up): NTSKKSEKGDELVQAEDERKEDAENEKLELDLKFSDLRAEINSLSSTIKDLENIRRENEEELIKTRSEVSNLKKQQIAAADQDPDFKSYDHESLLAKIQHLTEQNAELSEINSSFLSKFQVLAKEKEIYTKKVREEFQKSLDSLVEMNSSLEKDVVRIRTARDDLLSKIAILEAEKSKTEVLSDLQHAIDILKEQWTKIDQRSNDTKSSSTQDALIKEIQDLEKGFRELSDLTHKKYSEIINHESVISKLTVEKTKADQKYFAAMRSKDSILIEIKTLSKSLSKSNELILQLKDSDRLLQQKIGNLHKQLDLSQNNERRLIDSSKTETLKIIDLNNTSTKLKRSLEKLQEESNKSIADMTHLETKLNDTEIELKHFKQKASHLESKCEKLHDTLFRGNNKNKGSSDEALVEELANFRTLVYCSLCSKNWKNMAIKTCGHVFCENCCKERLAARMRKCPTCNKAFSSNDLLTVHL
Experiment: ITC; Lge1-CT (50–60 μM) injected into Bre1-LR (15 μM); 25°C, 20 mM TRIS (pH 7.5), 200 mM sodium chloride
Details: both partners purified
outcome-measure: stoichiometry N
Give the value as a plain number.

Worked cases, stoichiometry N given:
- binder: "Lge1-CT L325N (domain or fragment, budding yeast, UniProt Q02796 261-332, looked up, Lge1, budding yeast, residues 261-332; source: E. coli BL21 Rosetta (DE3): cleared cell extract on chitin resin (pull-down); purified (chitin, heparin, gel filtration) for ITC and SPR) KNVKKTNNTESECEKAREVFKESDSIDSALEELNLKINSNELELRLLNNQCDKHALNIQLTQEKNDSLLLMQ"
  outcome-measure: "stoichiometry N"
  observed-measurement: 0.367
- binder: "Lge1-CT K324E (domain or fragment, budding yeast, UniProt Q02796 261-332, looked up, Lge1, budding yeast, residues 261-332; source: E. coli BL21 Rosetta (DE3): cleared cell extract on chitin resin (pull-down); purified (chitin, heparin, gel filtration) for ITC and SPR) KNVKKTNNTESECEKAREVFKESDSIDSALEELNLKINSNELELRLLNNQCDKHALNIQLTQEELDSLLLMQ"
  outcome-measure: "stoichiometry N"
  observed-measurement: 0.329
- binder: "Lge1-CT I318D (domain or fragment, budding yeast, UniProt Q02796 261-332, looked up, Lge1, budding yeast, residues 261-332; source: E. coli BL21 Rosetta (DE3): cleared cell extract on chitin resin (pull-down); purified (chitin, heparin, gel filtration) for ITC and SPR) KNVKKTNNTESECEKAREVFKESDSIDSALEELNLKINSNELELRLLNNQCDKHALNDQLTQEKLDSLLLMQ"
  outcome-measure: "stoichiometry N"
  observed-measurement: 0.37
- binder: "Lge1-CT (Lge1 residues 261–332), intein-chitin binding domain (CBD) tag construct (domain or fragment, budding yeast, UniProt Q02796 261-332, looked up, Lge1, budding yeast, residues 261-332; residues 268–331 resolved in the electron density; the intein-CBD tag is named on the protein in the pull-down; also called intein-CBD-fused Lge1-CT; intein-CBD-tagged Lge1-CT; source: E. coli BL21 Rosetta (DE3): cleared cell extract on chitin resin (pull-down); purified (chitin, heparin, gel filtration) for ITC and SPR; co-purified with Bre1-LR for the …) KNVKKTNNTESECEKAREVFKESDSIDSALEELNLKINSNELELRLLNNQCDKHALNIQLTQEKLDSLLLMQ"
  outcome-measure: "stoichiometry N"
  observed-measurement: 0.396
- binder: "Lge1-CT L320N (domain or fragment, budding yeast, UniProt Q02796 261-332, looked up, Lge1, budding yeast, residues 261-332; source: E. coli BL21 Rosetta (DE3): cleared cell extract on chitin resin (pull-down); purified (chitin, heparin, gel filtration) for ITC and SPR) KNVKKTNNTESECEKAREVFKESDSIDSALEELNLKINSNELELRLLNNQCDKHALNIQNTQEKLDSLLLMQ"
  outcome-measure: "stoichiometry N"
  observed-measurement: 0.37

// next entry
Please fill in: stoichiometry N reported for Lge1-CT E303K (domain or fragment, budding yeast, UniProt Q02796 261-332, looked up, Lge1, budding yeast, residues 261-332; source: E. coli BL21 Rosetta (DE3): cleared cell extract on chitin resin (pull-down); purified (chitin, heparin, gel filtration) for ITC and SPR) KNVKKTNNTESECEKAREVFKESDSIDSALEELNLKINSNELKLRLLNNQCDKHALNIQLTQEKLDSLLLMQ = 0.587
